Answer each item with its documented pIC50.
system_name: CRTH2 (KB8 cells) (Homo sapiens, UniProt Q9Y5Y4)
Construct: host or cells: KB8 cells (human CRTH2 expression cell)
Sequence (Q9Y5Y4 whole entry): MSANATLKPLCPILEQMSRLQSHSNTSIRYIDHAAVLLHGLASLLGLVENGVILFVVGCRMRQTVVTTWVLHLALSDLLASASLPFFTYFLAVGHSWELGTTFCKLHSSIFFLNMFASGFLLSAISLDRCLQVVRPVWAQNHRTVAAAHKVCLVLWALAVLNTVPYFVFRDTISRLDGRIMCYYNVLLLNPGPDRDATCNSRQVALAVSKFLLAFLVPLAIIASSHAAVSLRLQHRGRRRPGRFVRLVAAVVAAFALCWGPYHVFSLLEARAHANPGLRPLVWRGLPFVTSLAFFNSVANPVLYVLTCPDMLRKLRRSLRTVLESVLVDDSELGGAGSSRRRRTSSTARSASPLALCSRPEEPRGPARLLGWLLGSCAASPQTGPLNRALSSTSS
experiment_description: CRTH2 antagonist test (PGD2-induced intracellular calcium ion concentration increase in KB8 cells)
Format: cell-based
study_conditions: PGD2 final concentration 100 nM, Fluo-4-AM fluorescence, read-out: antagonist activity (IC50 value, inhibition of calcium ion concentration increase)
pIC50: −log10 of the molar value.

I am curious: what pIC50 value has been reported for `O=C(O)Cc1cnc(C(=O)c2ccc(NC(=O)c3cnccn3)cc2)c2ccccc12` ?
≤ 6.00

I am curious: what pIC50 value has been reported for `COc1cc(C(=O)Nc2ccc(C(=O)c3ncc(CC(=O)O)c4ccccc34)cc2)ccc1C` ?
> 7.30

I am curious: what pIC50 value has been reported for `Cc1ccccc1C(=O)Nc1ccc(C(=O)c2ncc(CC(=O)O)c3ccccc23)cc1` ?
6.30 to 7.30

I am curious: what pIC50 value has been reported for `O=C(O)Cc1cnc(C(=O)c2ccc(NC(=O)c3cscn3)cc2)c2ccccc12` ?
≤ 6.00
